Source of measurements: paper PMC8079033

Exercise: state measured inhibition at 10 µM for each of the compounds provided.
# Test system: A498
# procedure_summary: NCI 60-cell line one-dose antiproliferative screen (SRB)
# Format: cell-based
# study_conditions: Homo sapiens, read-out: growth inhibition % (GI%)
All answers are understood in %, so give the number only.

Query: inhibition at 10 µM; subject: Cc1ccc(C(=O)c2ccc(CC(=O)NN3C(=O)c4ccccc4C3=O)n2C)cc1
13.3

Query: inhibition at 10 µM; subject: Cc1ccc(C(=O)c2ccc(CC(=O)NN=Cc3cc4ccccc4[nH]3)n2C)cc1
10.9

Query: inhibition at 10 µM; subject: Cc1ccc(C(=O)c2ccc(CC(=O)NN3C(=O)CCC3=O)n2C)cc1
14.5

Query: inhibition at 10 µM; subject: Cc1ccc(C(=O)c2ccc(CC(=O)NN=C3C(=O)Nc4ccc(Br)cc43)n2C)cc1
10.2

Query: inhibition at 10 µM; subject: Cc1ccc(C(=O)c2ccc(CC(=O)NN=Cc3c[nH]c4ccccc34)n2C)cc1
15.6

Query: inhibition at 10 µM; subject: Cc1ccc(C(=O)c2ccc(CC(=O)NNC(=O)Nc3ccc(Cl)c(C(F)(F)F)c3)n2C)cc1
18.3
